Please go through the items and note down their melting point.

Past entries and their recorded results:
molecule: OC(CC1CC1(Br)Br)(Cn1cncn1)C1(Cl)CC1 (single isomer, unassigned) [I-210a]
quantity-measured: melting point
value: 114 °C

molecule: OC(CCC1CC1(Cl)Cl)(Cn1cncn1)C1(Cl)CC1 (single isomer, unassigned) [I-607a]
quantity-measured: melting point
value: 130 to 131 °C

molecule: OC(CC1CC1(Cl)Cl)(CC1CC1(Cl)Cl)Cn1cncn1 (single isomer, unassigned) [I-277b]
quantity-measured: melting point
value: 105 to 106.5 °C

molecule: OC(CC1CC1(Cl)Cl)(CC1CC1(Cl)Cl)Cn1cncn1 (single isomer, unassigned) [I-277a]
quantity-measured: melting point
value: 114 to 115 °C

Reported melting point for OC(CCC1CC1(Cl)Cl)(Cn1cncn1)C1(Cl)CC1 (single isomer, unassigned) [I-607b] : what is it?
83 to 84 °C
